- studySystem: Mitogen-activated protein kinase 14 (Homo sapiens, UniProt Q16539)
- Sequence (Q16539 whole entry): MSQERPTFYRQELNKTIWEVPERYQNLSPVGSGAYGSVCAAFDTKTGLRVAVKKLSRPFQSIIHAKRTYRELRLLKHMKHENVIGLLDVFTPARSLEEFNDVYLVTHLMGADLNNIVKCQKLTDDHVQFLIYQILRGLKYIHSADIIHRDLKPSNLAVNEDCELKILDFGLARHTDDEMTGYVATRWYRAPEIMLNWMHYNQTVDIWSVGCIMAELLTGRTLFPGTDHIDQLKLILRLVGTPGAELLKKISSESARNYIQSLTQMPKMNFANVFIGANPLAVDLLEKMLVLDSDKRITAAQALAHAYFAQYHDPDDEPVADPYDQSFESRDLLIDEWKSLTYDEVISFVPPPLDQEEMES
- methodDescription: Inhibition of p38alpha
Please respond with reported pIC50 for every item in the list.
Numbers only, as −log10 of the molar value.

Observe how each entry below is paired with its result.
INSERT INTO measurements (compound, studysystem, numericresult) VALUES
  ('CC(C)N1CCC(c2cc(-c3ccc(F)cc3F)c3c(c2)N(c2c(Cl)cccc2Cl)C(=O)NC3)CC1', 'Mitogen-activated protein kinase 14 (Homo sapiens, UniProt Q16539)', 9.70),
  ('O=C1NCc2c(-c3ccccc3Cl)nc(N3CCOCC3)nc2N1c1c(Cl)cccc1Cl', 'Mitogen-activated protein kinase 14 (Homo sapiens, UniProt Q16539)', 8.70);

Required: pIC50, one value per compound below.
1. Nc1cc(-c2ccccc2Cl)c2c(c1)N(c1c(Cl)cccc1Cl)C(=O)NC2
2. O=C1NCc2c(-c3ccccc3Cl)nc(NC3CN4CCC3CC4)nc2N1c1c(Cl)cccc1Cl (stereo not given)
3. O=C1NCc2c(-c3ccccc3Cl)nc(N3CCc4[nH]ncc4C3)nc2N1c1c(Cl)cccc1Cl

result:
8.22
8.92
8.72

The reported measurements were obtained from ChEMBL document CHEMBL1145325.
